target: Sa Hfq (Staphylococcus aureus, UniProt A0A0H3JV59 1-77); assay: fluorescence polarization
Below is a list of entries, each paired with its recorded pKd value.
Hey, just a heads up that pKd is the negative log base 10 of the concentration in molar.

Examples with their reported pKd follow.
[[record]]
binder = "ACACACA (ssRNA) [(AC)3A]"
reported_result = 8.24

[[record]]
binder = "GGAGGAGGAGGAGGAGGAGGAGGAGGA (ssRNA) [(GGA)9]"
reported_result = 6.46


Given the binder AAAAAAA (ssRNA) [(AA)3A = A7] , what is its reported pKd?
7.71

Given the binder GGAGGA (ssRNA) [(GGA)2] , what is its reported pKd?
6.35

Data origin, for the record: paper PMC3505971
